Would you mind telling me the reported viability of each entry?
Assay: HUVEC growth inhibition – cell-based, human, primary screen (AID 575);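 note: 100% = median of untreated cell wells with 0.1% DMSO on each plate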
Conditions: HUVEC proliferation, CellTiter-Glo luminescence, 72 h; at 10 µM; stronger effect = lower value
One number for each entry, in %.

Some solved entries appear below for comparison.
Cc1cc2cc(CNC(=O)c3ccc4c(c3)OCO4)ccc2[nH]1 ... 114
Cc1ccc(S(=O)(=O)N2CCCN(S(=O)(=O)C3CCS(=O)(=O)C3)CC2)cc1 (stereo unspecified) ... 101
O=C(Nc1ccc(Cc2ccncc2)cc1)C1CC1 ... 88.2
CCOc1ccccc1N(CC(=O)N1CCOCC1)S(=O)(=O)c1ccccc1 ... 108
NC(=O)c1sc2nc3c(c(-c4ccco4)c2c1N)CCC3 ... 75.7
COCCCn1c(SCC(=O)N2CCc3ccccc32)nnc1-c1ccoc1C ... 93.8
Cc1ccc2c(c1)sc1ncc(NC(=O)c3ccccc3)c(=O)n12 ... 114
CCCCn1c(=O)[nH]c(=O)c2c1nc(COc1ccc(C#N)cc1)n2CCC ... 83.1
Cc1cc(NC(=O)Cc2c(F)cccc2Cl)no1 ... 95.5
COc1ccc2[nH]c(=O)c(CN(Cc3cccs3)Cc3nnnn3C(C)(C)C)cc2c1 ... 58.7

// switching to the query compound
Give me measured viability, please, for this compound: COc1ccc(C2/C(=C(/O)c3ccccc3)C(=O)C(=O)N2c2ncccn2)cc1OC (stereo unspecified)
101

###

Please provide measured viability for the entries that follow.
Test: growth suppression of PTEN-deleted HCT116, pilot screen, cell-based, HCT116 clonal line, CellTiter-Glo (AID 824);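 note: 0% = 20 µM Hyamine control and 100% = vehicle cell control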
Conditions: 60 h, at 10 µM, stronger effect = lower value
Records with an inconclusive call do not appear.
One number for each entry, in %.

# example entries with known answers
OC(CN1CCN(c2ccccc2)CC1)c1ccc2c(c1)CCN2 (stereo not given) ... 84.4
Cc1csc(NC(=O)CSc2nnc(Cc3cccn3C)n2-c2ccc(F)cc2)n1 ... 95.5
O=C(NCc1nnc(SCC(=O)N2CCC(Cc3ccccc3)CC2)o1)c1ccccc1F ... 92.2
O=C(COC(=O)c1cnccn1)c1ccc(OC(=O)c2ccccc2)cc1 ... 95.2
CC(NC(=O)c1cn(C)c2ccc(S(=O)(=O)N3CCCC3)cc2c1=O)c1ccc2c(c1)OCCO2 (stereo not given) ... 76
COc1ccc(N2C(=O)CC(N3CCCC4CCCCC43)C2=O)cc1 (stereo not given) ... 101
Cc1cccc(OCC(=O)N2CCC(c3ccccc3)C2)c1 (stereo not given) ... 83.7
Cc1[nH]c2ccccc2c1Cc1nnc(SCC(=O)NCc2ccco2)o1 ... 95.5

Hey, quick one: what's viability for each of these?
1. Cc1ccc(CCNC(=O)C2CCCN2S(=O)(=O)c2ccc3c(c2)CCC(=O)N3)cc1 (stereo not given)
2. O=C(C1CCN(c2nnc(-n3cccc3)s2)CC1)N1CCN(Cc2ccc3c(c2)OCO3)CC1

98.8
64.8

###

Test: growth suppression of yeast trafficking mutant, preliminary HTS, modulators of trafficking downstream of Golgi apparatus project, 1536-format plate, OD 615 nm (AID 637)
Settings: yeast transport mutant growth, absorbance 615 nm, 18 h; stronger effect = higher value
measured.property: inhibition (%)
Give bare numbers, in %.

Before answering, review these 8 worked examples.
COc1ccc(N2CCN(C(=O)CN3C(=O)C4CC=CCC4C3=O)CC2)cc1 (configuration not stated) ... 14.8
Cc1[nH]n(C(N)=S)c(=O)c1C(c1ccccc1)C(C#N)C#N (configuration not stated) ... 20.2
C=CCn1c(SCC(=O)Nc2ccc3c(c2)OCO3)nc2ccccc2c1=O ... -1.27
CCOC(=O)c1c(NC(=O)Cn2c(C)nc3ccccc32)sc2c1CCC2 ... -0.97
CCCc1c(OCCCCc2nn[nH]n2)ccc(C(C)=O)c1O ... 3
O=C(COc1ccc(Cl)cc1)Nc1ncccn1 ... 4.13
C=CCC1(O)C(=O)Nc2ccccc21 (configuration not stated) ... 1.82
CCC1CCCCN1CCCNC(=O)c1ccc(CS(=O)(=O)Cc2ccccc2F)o1 (configuration not stated) ... 2.73

Field: inhibition. Fill in for each record below.
1. O=C(Cn1ccc2ccccc2c1=O)NCCC(=O)N1CCN(C2CCCCC2)CC1
2. CCOc1nc(-c2ccncc2)nc2ccccc12
3. COc1ccccc1OC(=O)c1ccc(SC)cc1OC
4. Cc1ccc(OCCN2CCN(C(=O)CCC(=O)Nc3nnc(C)s3)CC2)cc1

[2.13, 9.35, -5.97, 2.91]

###

Assay: reversal of MRP1-mediated doxorubicin resistance, pilot screen, H69AR cells, doxorubicin co-treatment (AID 601)
Details: H69AR cells + 2 uM doxorubicin, CellTiter-Glo, 72 h; at 10 µM; stronger effect = higher value
measured.property: differential viability (reversal) (%)
Answers are plain numbers, in %.

Illustrative cases are given below, each with its answer.
COc1ccc(N2C(=O)C3C4C=CC(C4)C3C2=O)nn1 (centres undefined) ... 17.4
NC(CO)C(=O)NNCc1ccc(O)c(O)c1O (centres undefined) ... 8.12

Please give differential viability (reversal), item by item, for the list that follows.
1. Cc1[nH]nc2c1C(c1ccc(F)cc1)C1=C(CC(C)(C)CC1=O)N2 (centres undefined)
2. COc1nc(C)ccc1-c1noc(-c2ccncc2)n1
3. COc1ccc(-n2ncc3c(NCc4ccc5c(c4)OCO5)ncnc32)cc1
4. CC(=O)Nc1c(O)[nH]c2ccccc12
5. O=C(CN1CCC(c2nc3ccccc3s2)CC1)NCc1cccs1
6. O=C(CSc1nc2ccccc2c(=O)n1Cc1ccco1)NCc1ccccc1

[-0.39, 11.4, -11, -1.07, -3.33, 3.12]

# batch size: 8; output differential viability (reversal) per entry
1. COC(=O)Nc1sccc1C(=O)Nc1sccc1C(=O)OC
2. Cc1c2cnn(CC(=O)N3CCN(c4ncccn4)CC3)c(=O)c2c(C)n1Cc1ccc(F)cc1
3. COc1cccc(-c2cc(C(=O)N3CCCc4ccccc43)no2)c1
4. Cc1cc(C)c2c(N)c(C(=O)c3ccccc3)oc2n1
5. Cc1cc2c(c(=O)n1C)C(Cc1ccccc1)C(C#N)=C(N)O2 (centres undefined)
6. Cc1nc2sc(C(c3cccc(F)c3)N3CCC(C)CC3)c(O)n2n1 (centres undefined)
7. CC(C)OC(=O)CSc1nnc(-c2ccc(O)cc2)n1Cc1ccccc1
8. CC(OC(=O)c1ccco1)C(=O)NCc1cccs1 (centres undefined)

1. -13.8
2. 2.37
3. 5.08
4. -1.71
5. 9.48
6. 9.65
7. -4.22
8. -5.53

###

Test: growth inhibitors of H69AR lung tumor, primary screen, human, duplicate replicates (AID 580);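 note: 100% = mean luminescence of untreated wells and 0% = no signal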
Conditions: H69AR lung tumor cells viability, ATP luminescence, 72 h; at 10 µM; stronger effect = lower value
For each of the compounds below, state its viability.
Give bare numbers, in %.

Cc1ccc(Cl)c(Nc2ccccc2C(=O)O)c1Cl ... 91.3
COc1cccc(C(c2nnnn2Cc2ccccc2)N2CCN(C(=O)c3ccco3)CC2)c1OC (stereo unspecified) ... 82.3
O=C(c1ncn[nH]1)N1CCN(c2nc(-c3ccccc3)cs2)CC1 ... 94.5
Cc1ccc(S(=O)(=O)NCCNC(=O)C2CCCNC2=O)cc1 (stereo unspecified) ... 105
CCCn1c(SCC(=O)NC(C)(C)C)nnc1C(C)C ... 93

Go through the list and state viability for each entry.
1. COC(=O)c1[nH]c2c(c1C)C(=O)CC(c1cccs1)C2 (stereo unspecified)
2. CSc1nnc(-c2cnccn2)n1C

36.7
90.7

###

For each entry below, report its viability value.
Experiment: HUVEC growth inhibition – cell-based, human, primary screen (AID 575);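 note: 100% = median of untreated cell wells with 0.1% DMSO on each plate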
Conditions: HUVEC proliferation, CellTiter-Glo luminescence, 72 h; at 10 µM; stronger effect = lower value
Give bare numbers, in %.

CC(=O)OCC(=O)[C@@]1(O)CC[C@H]2[C@@H]3CCC4=CC(=O)C=C[C@]4(C)[C@H]3[C@@H](O)C[C@@]21C ... 91.5
OCCN1CCN(CCCN2c3ccccc3Sc3ccc(C(F)(F)F)cc32)CC1 ... 2.4

State the recorded viability for every item in the following list.
1. Cc1cccc(-n2ncc3c(NCc4cccs4)ncnc32)c1
2. CCOc1ccccc1-n1c(SCC(=O)NC(C)CC)nnc1-c1ccoc1C (configuration not stated)
3. O=C(NCc1ccco1)c1cccc(S(=O)(=O)N2CCCCC2)c1
4. CCn1cnc2sc(C(=O)Nc3ccc4c(c3)OCO4)c(C)c2c1=O
5. COCCn1nnnc1C(c1cc2ccc(OC)cc2[nH]c1=O)N1CCc2ccccc2C1 (configuration not stated)

1. 61.8
2. 82.5
3. 99.3
4. 96.2
5. 90.4

###

Assay: reversal of MRP1-mediated doxorubicin resistance, pilot screen, H69AR cells, doxorubicin co-treatment (AID 601)
Settings: H69AR cells + 2 uM doxorubicin, CellTiter-Glo, 72 h; at 10 µM; stronger effect = higher value
For each of the molecules below, state its differential viability (reversal).
Answers are plain numbers, in %.

CCOC(=O)Cc1nnc2c(Nc3ccccc3F)nc3nonc3n12 ... -18.9
COc1ccc(-c2noc(CN3C(=O)c4ccccc4C3=O)n2)cc1 ... 5.23
CCCCOc1ccccc1NC(=O)c1ccco1 ... -14.4
COc1cc2c(cc1OC)CN(C(=O)COc1ccc(C#N)cc1)CC2 ... -12
COCCc1ccc(OCC(O)CNC(C)C)cc1 (stereo unspecified) ... -7.28

Consider the record given below.
Specify reported differential viability (reversal) for the molecule shown: CCOC(=O)C1CCN(C(=O)COc2ccc(S(=O)(=O)NC(C)C)cc2Cl)CC1
-15.3

Taken from PubChem BioAssay.
